- Tested on: C. guilliermondii
Starred links: 1 amine or outer side, 2 acyl side, 3 side chain; linkers in the order of their positions; H or OH if unused. Positions of bridges follow the written chain, without caps; N, C: chain ends. Non-standard residues stand in square brackets, D forms with d. Residues, ends and D or L forms follow the SMILES beside them. *: point of attachment. hTyr(3S-OH,4S-OH,3'-OSO3H) = N[C@H](C(=O)O)[C@H](O)[C@@H](O)c1ccc(O)c(OS(=O)(=O)O)c1; Orn(4R-OH,5R-OH) = O=C([C@H](C[C@@H](O)[C@@H](O)N[*:3])N[*:1])[*:2]; Pro(3S-OH,4S-Me) = C[C@H]1CN[C@H](C(=O)O)[C@H]1O; X1 = CCCCCOc1ccc(-c2cc(-c3ccc(C(=O)*)cc3)no2)cc1; Gln(3R-OH) = NC(=O)C[C@@H](O)[C@H](N)C(=O)O; Hyp = O=C(O)[C@@H]1C[C@@H](O)CN1
Measure: MIC90 (µg/mL)

Compound	Recorded Number
CCCCCOc1ccc(-c2cc(-c3ccc(C(=O)N[C@H]4C[C@@H](O)[C@@H](O)NC(=O)[C@@H]5[C@@H](O)[C@@H](C)CN5C(=O)[C@H]([C@H](O)CC(N)=O)NC(=O)[C@H]([C@H](O)[C@@H](O)c5ccc(O)c(OS(=O)(=O)O)c5)NC(=O)[C@@H]5C[C@@H](O)CN5C(=O)[C@H]([C@@H](C)O)NC4=O)cc3)no2)cc1 [micafungin] (X1-[Orn(4R-OH,5R-OH)]T[Hyp][hTyr(3S-OH,4S-OH,3'-OSO3H)][Gln(3R-OH)][Pro(3S-OH,4S-Me)]; lactam 1-C)	0.5

###

Entries and their I (intermediate) isolates, n (%)
- Tested on: C. glabrata
- Assay type: cell-based, Candida glabrata
Starred links: 1 amine or outer side, 2 acyl side, 3 side chain; linkers in the order of their positions; H or OH if unused. Positions of bridges follow the written chain, without caps; N, C: chain ends. Non-standard residues stand in square brackets, D forms with d. Residues, ends and D or L forms follow the SMILES beside them. *: point of attachment. hTyr(3S-OH,4S-OH,3'-OSO3H) = N[C@H](C(=O)O)[C@H](O)[C@@H](O)c1ccc(O)c(OS(=O)(=O)O)c1; Orn(4R-OH,5R-OH) = O=C([C@H](C[C@@H](O)[C@@H](O)N[*:3])N[*:1])[*:2]; Pro(3S-OH,4S-Me) = C[C@H]1CN[C@H](C(=O)O)[C@H]1O; X1 = CCCCCOc1ccc(-c2cc(-c3ccc(C(=O)*)cc3)no2)cc1; Gln(3R-OH) = NC(=O)C[C@@H](O)[C@H](N)C(=O)O; Hyp = O=C(O)[C@@H]1C[C@@H](O)CN1
Measure: I (intermediate) isolates, n (%)

Compound	Result
CCCCCOc1ccc(-c2cc(-c3ccc(C(=O)N[C@H]4C[C@@H](O)[C@@H](O)NC(=O)[C@@H]5[C@@H](O)[C@@H](C)CN5C(=O)[C@H]([C@H](O)CC(N)=O)NC(=O)[C@H]([C@H](O)[C@@H](O)c5ccc(O)c(OS(=O)(=O)O)c5)NC(=O)[C@@H]5C[C@@H](O)CN5C(=O)[C@H]([C@@H](C)O)NC4=O)cc3)no2)cc1 [micafungin] (X1-[Orn(4R-OH,5R-OH)]T[Hyp][hTyr(3S-OH,4S-OH,3'-OSO3H)][Gln(3R-OH)][Pro(3S-OH,4S-Me)]; lactam 1-C)	0 (0%)
Nc1nc(=O)[nH]cc1F [5-FC, 5-flucytosine]	0 (0%)
C[C@@H]1[C@H](O)[C@@H](C)/C=C/C=C/C=C/C=C/C=C/C=C/C=C/[C@H](O[C@@H]2O[C@H](C)[C@@H](O)[C@H](N)[C@@H]2O)C[C@@H]2O[C@](O)(C[C@@H](O)C[C@@H](O)[C@H](O)CC[C@@H](O)C[C@@H](O)CC(=O)O[C@H]1C)C[C@H](O)[C@H]2C(=O)O [amphotericin B]	2 (2.8%)
OC(Cn1cncn1)(Cn1cncn1)c1ccc(F)cc1F [fluconazole]	3 (4.2%)
